# EXPERIMENTAL_DETAILS: soluble on expression in E. coli; label from the status in PepcDB or PDB records
QUANTITY_NAME: soluble on expression in E. coli

MSVIYKVVTRPSDPRVPNSPKKYYPHLITLGQSVNLKYIAQKMQGYSSLSIGDIKSVIQNFVEKMKEQLLEGKSVNIEGLGVFMLTACSKGADAAKDVNAKSVDSVRIFFQANKELRITKTATRADEKLDLISLDEYLKKLNASVTPNDPDDGENGGGGNEGGDEEAPDPTV    not soluble
VLSHCLETGFLTAYLALLVNFKPDVALKCGLYHDIGKADDENGKKNHTVTGAKIGDEFYFENDVKYTIANHHNKNVDNVYCRLTQIGDKLSAG    not soluble
MAHHHHHHMEHVRHLLDVIMGRATLDPGVARVVSVFFNQKSSGFSPQELMQFLVTCAFHVKGMTPLEAARFCFFALRRDMEHAIARDDVIFMLEHSLIEHTIEMPEMELRRRVVDIFGDTTYVIFDDFVRYFIHNYAMWYAFGVPVTVSGERSGRGGDVAPQLNPTLTLLKADGEPNAKARAPTAATTVSTSGAAPVSASTSTTAATPAAAITTATTQKTVPHDESVWRTFIARVQHSNKAFSVTAHVNDTIFDVMVMVQNSTGIRAACQEWRAGNVALDPKCRLGSTELGLGGNEVAAPEVIIIARDEAVRLVMVYKEKGFRWEVRLPSSEKVLKLRALVQHKTMIPLTRCVLRAHGSCLMDRHPLAHYNLQDGDVVTITQE    not soluble

* * *

# EXPERIMENTAL_DETAILS: soluble on expression in E. coli; label from the status in PepcDB or PDB records
QUANTITY_NAME: soluble on expression in E. coli

AFINAHTHFEFSNNKASFDYGSFSGWLGSVLNNGGAILENCQGAIQNAISTQLKSGVGSVGAISNHLIEVNLLKESPLNAVVFLEFLGSSYSLEKLKAFEAKFKELKDLEDKKLKAALAVHAPYSVQKDMALSVIQLAKDSQSLLSTHFLESLEELEWVENSKGWFENFYQHFLKESHFKSLYKGANDYIDMFKDTHTLFVHNQFASLEALKRIKSQVKNAFLITCPFSNRLLSGQALDLERTKEAGLSVSVATDGLSSNISLSLLDELRAFLLTHNMPLLELAKIALLGATRHGAKALALNNG    not soluble
MSLANLKVNLYGMEFLNPIMTAAGPGAKDGALCQEAAKGGAGAICTKTISVLPADVPRPCMAKTNSGFLNTELWSELPKEQWIEEEYKKVKETGLPVIVSMGYSAEQIAEVAPLVKPYADAVELSTHYVGTDVAPIVNALKAAKAVLDVPVFMKMSPHTDIQTIAKAVEEAGADGLVMINSFGPCMAIDVNTGYPIMGSKAGYGWLSGAPIRPLAIRCIYEASQVVNIPIIGVGGITCGKDVAEMMMAGASAVQVCTEAILKGPSIYGKIAKELNEFLDENGEGHHHHHH    not soluble

* * *

# EXPERIMENTAL_DETAILS: soluble on expression in E. coli; label from the status in PepcDB or PDB records
QUANTITY_NAME: soluble on expression in E. coli

MSELFKKLMDQIEMPLEMKNSRVFSSADIVEVKVYPESRIWDFRFSFETILPIDFYQELRSRLVTSFETADIKAVFDIEVENAEFSNELLQAYYQEAFKQPTCNSASFKSSFSHLTVSYTDGKVLISAPQFVNNDHFRKNHLPNLEKQFEAFGF    not soluble
SLRSIMTPRGEISWVDAEQSEDEIRRQLLSSPHSLFPVCRGELDEIIGIVRAKEMLVALESGENVAALASASPAIVVPETLDPINLLGVLRRARGSFVIVTNEFGVVQGLVTPLDVLEAIAGEFPDADETPEIVIDGDGWLIKGSTDLHALQQALGLDPLINDDEDIATVAGLVISANGHIPRIGDVVSLPPLHFTVVEANDYRVDLVRAVVTRPPSDEEE    not soluble

* * *

# EXPERIMENTAL_DETAILS: soluble on expression in E. coli; label from the status in PepcDB or PDB records
QUANTITY_NAME: soluble on expression in E. coli

MSLENCKKVNYERVEKERESGSSISIRNFKREAYDSSGQLQWELRANESFVYVNENKTTFYDIDFDQYEAGKFKSKLLAEKGEINHKTRLMLLEGKILLKTDDHKILTAKTMEYNMDTKKLVSDSEVSVSADGTTIRGIGLRADKDLNKFTILKPTAITQGGTNPLKAAGSPEGHHHHHH    soluble
GMEMTKVTGKFDVKLTPENAYATGVGGVNLGRMALDKTFYGELEARSQGEMLSAMTAVKGSAGYVAIEQVVGKLCGRQGSFVLQHFGIMTDGQNRLHLEVVPHSGAGELTGLYGTMAISIENGQHFYEFSFCFEPASEVEG    soluble
MEQKQRRFTKNIFVLDVTAKTLCGAIAKLSSQPYCQIKIGRVVAFKPVKNPEPKGYVLNVPGPGAYRIQDGQDIISLMLTPHGVEATTERWEEWKFEGVSVTPMATRVQYNGVMVDAEIKYCKGMGIVQPYMRNDFDRNEMPDLPGVMRSNYDIRELRQKIKNERESAPRLQVHSVARPGSENLYPQ    soluble

* * *

# EXPERIMENTAL_DETAILS: soluble on expression in E. coli; label from the status in PepcDB or PDB records
QUANTITY_NAME: soluble on expression in E. coli

MIRELFEKEGFTLDEEQERKFSIYLQELLRWNKVHNLTSIKKPEEIVRRHFIDSVSVVRCFERIGLDLRGKHFADVGSGAGFPGVPLKIYLKDIKLTLIESVSKKCSFLEYLKIKLNEDYRVLCTRAEKVEEKFDVVLARALGEFEEVKEILEKLSIGYVFVYKGSKLKEEWLKDYKLCELSLSFMPKSYILWKKVLEHHHHHH    not soluble
MAHHHHHHMSTNINEEKCLEGDDIKYEKPDTHKNFWKSFGLNNEAGKLLYHLYGESNKIKPNILSSKHDGDKNKNDKKKEDAKLNTTYRKPQIHYPSLKKKAVKENPIDTIKHRKPLSKILEETQNYDCIKDIPISIGMNRETEKNKLHNIFVEEKCLMVPPSCAPMILTQEEKKEIIEKAQQRYIYINEENKSREEKHIQALRNYKLELIQELNEKRKLLQDIINEDKNIQGNISINQSDKRVSNKGNSYNIIQIKNDIEQCQKSIKKIEDNLNTYE    not soluble

* * *

# EXPERIMENTAL_DETAILS: soluble on expression in E. coli; label from the status in PepcDB or PDB records
QUANTITY_NAME: soluble on expression in E. coli

MKVVILGSGSYSGTPKPLCNCENCSIARRNPAFRRTRFSLYIEEGKILVDPSPDLHYHLERLNKKVENVFITHAHFDHIFGVPDLQVYKKLIISSNTLGIKVAKELSRLAFGSEVPSGYEWRYEELQFWNEYSFDNFRVIHFPVIHSLEIAGGYLFEIKGRRIGVTGDTGPEILKDEKVKKLLEGVDILIVEMTKRESIPGVHLGVSDSIEFAKVVGASYTVFAHISHTNYSHEVLEKRVRESGVQGEVARDFTIIEVLEHHHHHH    not soluble
MGSDKIHHHHHHMKLLHIERHTTCLNYVSDYNICFIHQRLFSGGDFKIDNHHHSCILFLLKGEILTSCSEFHDQHIVEGHMVLFPQNDPNQSKSMTETEFILLFFDNQVNLHNKMSIELSAIHLESEKSCFYSLSICPPLRHVLDSICFYLKQKVQCSHMHELKQKEIFMVFGTFYNRTDMAHFLMPITGRDPNFKSFVLENYLQIRNIKQFAQLYHCSERSFNRKFKSCFHDTPYNWILNQKTRHIKGQLANRNIPISEIARTFHFASPSHFTTYCKKRLGITPSEFREKIAK    not soluble
MAGATDQRRQEVLRAIVADYIASQEPVGSKALLERHNLKVSSATIRNDMAVLESEGYIVQQHASSGRIPTEKAYRTFVDSINDIKPLSVAERRAILGFLERGVDLEDVLKRSVQLLSQLTRQAAVIQLPNLNVSRVKHCEVVLLSPVRLLLVLITDNGRVEQRNVEVDQICEPEHVAKMRDVLNRALDNKTLSDASASLAELAAGEILVDPDIQPMILRCATVLIETLVEQPNDRLILAGASNLTHIAREMPSSLPAMLEALEEQVVVLKLLTNVRDLGHVSVLIGEENEDEQLRGTSVVTTGYGAQGATLGGLGVVGPTFMDYSGTMSKVYAVAHYVSRVLSGG    not soluble
QDSPNAIKAAVISSPMLGFYSGLLPKSIAKILVAIKLKFNNIISNTPWYFLGQKDYSPVNFTDNKLTHSIPRYQYFVDLYKKNKIIQLGGVTTHWLAQSIAAQKELFSKIVQLKTPILLLQASGDTVVCQQAQDDFCQQLHTLQPQSCPNGVPSNIDNAFHELFFETDDLRNKAITQSLAWFEQH    not soluble
MYTIQANPSGTRSIEVSSENLKTIEKYALFRHLIDSTGIVDEPVLDKLKLNIRSLIASQEEDSKELLDLCIDVIYHNNMKAFGLQQLIKLYLTWLSTQDAEEEEE    soluble
MSSTAEEMAAAFEQTGGPDLTTGSGKRTKSDRVEHKHASQPGGDTRKVVQTASNGEAKRKEK    not soluble
PLGSQYFLKVLIPSYAAGSIIGKGGQTIVQLQKETGATIKLSKSKDFYPGTTERVCLIQGTIEALNAVHGFIAEKIREMPQNVAKTEPVSILQPQTTVNPDRANQVKIIVPNSTAGLIIGKGGATVKAIMEQSGAWVQLSQKPDGINLQNRVVTVSGEPEQNRKAVELIIQKIQEDPQ    soluble
SLKDELANIPGIQFVDHVAIAVKQGDLEGQVAAYKMLGFTEVHREDVLGGDQVREVLLRIGDGPNLIQLLEPLNASSPVQKLIEKNGGRGGFAHVAFRVRNARESFDAMTAQGFHIIDKAPRKGSRGTTVFFVHPKSLDSAPFGFLIEIVEEPVEG    soluble
EKEKDTIAAEHKQEASVLLNLHRNKINYLIGETMARMTSLSIAIDRPVDIKKMQSILEKTFDSEPRFSGLYFLNAKGDVTASTTELKTKVNLADRSFFIKAKETKKTVISDSYSSRITGQPIFTICVPVLDSKRNVTDYLVAAIQIDYLKNLINLLSPDVYIEVVNQDGKMIFASGQASHAEDQKPVSGYLDDISWNMKVYPNPVTIEELSKSL    soluble
MTITGIIAEFNPFHNGHKYLLDQAEGLKIVAMSGNFMQRGEPAIVDKWTRTQMALENGADLVVELPFLVSVQAADFFGQGAMDILDRLGIDSLVFGTEEVRDYQKIADLYTEKGAEMEKFVENLPDSLSYPQKTQAMWKEFAGLDFSGNTPNHVLALAYAKAVAGRNIKLHPIQRQGAGYHSVNKDVDFASATALRQHQKDQDFLERFMPSVALFEQASKVIWEDYFPLLRYQILSNPDLTTIYQVNQEMAVRIKEAIKTAQSVEELVELVTTKRYTKARVRRLLTYILMQARESDLPEAIHVLGFTEKGRQHLKSLKGQVSLVSRIGKEPWDAMTQKADQIYQLGKPSIAEQNFGRVPIRIETN    soluble
SGLRKMAQPSGLVEPCIVRVSYGNNVLNGLWLGDEVICPRHVIASDTTRVINYENEMSSVRLHNFSVSKNNVFLGVVSARYKGVNLVLKVNQVNPNTPEHKFKSIKAGESFNILACYEGCPGSVYGVNMRSQGTIKGSFIAGTCGSVGYVLENGILYFVYMHHLELGNGSHVGSNFEGEMYGGYEDQPSMQLEGTNVMSSDNVVAFLYAALINGERWFVTNTSMSLESYNTWAKTNSFTELSSTDAFSMLAAKTGQSVEKLLDSIVRLNKGFGGRTILSYGSLCDEFTPTEVIRQMYGVNLQ    soluble
MGSDKIHHHHHHMKDNYDAPESMLTGRVMYNGEALQLRGNEAVQLQLYQHGYAKHDPINVYVNQDGMYSANLFDGEYQMITKSGNGPWTSEGRDTINVTVAGNTVQDVEVTPYYLVRDAQMTLEGNKVNASFKVEKVAGGGIDRVFFMLSTTQFVNDAEHNVDRYDETDNLDAYDETGKLYTFATRDYTDNSMFQTALKRGTLFGRICIWPKGSDQGIYSKVIRLK    not soluble
MGSDKIHHHHHHMMKLSTMKKVVATVDKKWRSPLAEFILERWGFDRHSVFYWRASANFIFMFQHHGKKYYLRFNDSCERNLTLIKEELKLVQYLGSQALAIAQPVLSKNNNLVEVVITPIGTFYAVVFEALDGEHLSFEEMNEEQLFLWGEMLGTIHENLKNVPNDLAIKRPSWKDDLEKVKEWIPSNEIAAMKELEMISEWADQLPITKENFGIIHYDFELDNVRFNEITIGALDFDDCAYYWYVADIVYALRDAGKFRVTTPAIKTFIKGYKSSTFLEEELLEEANGFERLHHLVSFARLLRSVDKDYSKEEPGYLMDLRKNLVSLINNYRLSFEQNHK    not soluble
